The reported measurements were obtained from ChEMBL document CHEMBL1201862.

Test system: RPMI-8226
runDescription: NCI tumour cell line growth inhibition, 48 h
Activity calls are given as the source filed them. No stated cut-off is given here; in the data, active = GI50 up to about 1.1 µM and inactive = higher.
assayReadout: GI50

Solved entries:
COc1ccc(Cc2nc3ccccc3s2)cc1OC | 23.7 µM (inactive)
COc1ccc(C(=O)c2[nH]c(Nc3cc(C)ccn3)c(C(=S)Nc3ccccc3)c2N)cc1 | 13.3 µM (inactive)
COC(=O)c1c(-c2cc(OC)c(OC)c(OC)c2)oc2ccccc2c1=O | 36.2 µM (inactive)
O=c1[nH]nc(Cc2ccccc2)n1C1CCCC1 | > 100 µM (inactive)

**Q:** Reported GI50, compound N#CC12C(=O)N=C(N)C1(C#N)C(c1ccco1)NC1=C2CCCC1 (stereo not given) : ____
**A:** > 100 µM (inactive)

====

Tested on: HOP-92
runDescription: NCI tumour cell line growth inhibition, 48 h
Activity calls are given as the source filed them. Cut-off read from the data, not from the text of the source: active = GI50 up to about 1.1 µM and inactive = higher.
Measured GI50 of individual entries

# annotated cases, reported GI50 shown
CCOC(=O)c1c(Sc2ccc([N+](=O)[O-])cc2[N+](=O)[O-])nc2c3ccccc3ccn12 | 13.9 µM (inactive)
COc1cccc2c1/c(=C/c1ccc(N(C)C)cc1)c1cc(-c3ccccc3)[n+](C)n12 | 0.0414 µM (active)

**Q:** Query for HOP-92: what GI50 does the record show for "COC(=O)/C(=C/c1ccc(OC)cc1)C(C(=O)O)=C1CCCCC1" ?
**A:** > 100 µM (inactive)

**Q:** Give the reported GI50 for CC1(C)OC(CCC#N)CN1C(=O)OCc1ccccc1 (centres undefined) (system: HOP-92).
**A:** > 100 µM (inactive)

====

Tested on: NCI-H23
runDescription: NCI tumour cell line growth inhibition, 48 h
The source made the active and inactive calls. No stated cut-off is given here; in the data, active = GI50 up to about 1.1 µM and inactive = higher.
assayReadout: GI50

These solved cases illustrate the format of a correct answer.
CC1C2C=CC1C(c1c3ccc(=O)c(O)c-3oc3c(O)c(O)ccc13)C2C(=O)O (stereo not given) | 35.6 µM (inactive)
Nc1nc(=O)n([C@@H]2CC[C@H](CO)O2)cc1F | > 100 µM (inactive)
N#Cc1ccc(/N=C(/NCC(=O)O)Nc2ccc3ccccc3c2)cc1 | > 10 µM (inactive)
O=C(CC(C(=O)c1ccsc1)c1ccc2c(c1)OCO2)c1ccccc1 (stereo not given) | 0.209 µM (active)

Continue with the next compound.
**Q:** Observed GI50 on NCI-H23 for CCOC(=O)N1C2C=C(C)C(ON2C(=O)c2ccccc2)C2C(C)C(=O)N21 (stereo not given) , please.
**A:** > 100 µM (inactive)

====

Tested on: CAKI-1
runDescription: NCI tumour cell line growth inhibition, 48 h
Activity calls are given as the source filed them. Cut-off read from the data, not from the text of the source: active = GI50 up to about 1.1 µM and inactive = higher.
Entry note: the call must match one of active, inactive

CCCCC1Cc2ccccc2-c2nc3ccccc3n21 (configuration not stated) | inactive
CCOC(=O)NC(=S)NC(C)c1ccccc1 (configuration not stated) | inactive
C=CC1=C(C)/C(=C/C2=NC(=C\c3[nH]c(CC4NC(=O)C(C)/C4=C\C)c(C)c3CCC(=O)O)/C(CC(=O)O)=C2C)NC1=O (configuration not stated) | inactive
Cc1cc(S(=O)(=O)Nc2n[nH]c(-c3ccc(Cl)cn3)n2)c(S)cc1Cl | inactive
CC(N)C(C)Cc1ccccc1 (configuration not stated) | inactive
Cc1nc2cn3c(c2c(=O)[nH]1)CCCCC3 | inactive
Cc1cc(SCC(=O)c2ccc(Br)cc2)cc(C)[o+]1 | inactive
COc1ccc(/C=C2\CCc3ccccc3C2=O)cc1OC | inactive

**Q:** Call for entry CN1C(=O)C(=O)N2c3ccc(Cl)cc3C3(c4ccccc4)N=CC12O3 (configuration not stated) :
**A:** inactive

**Q:** What call does the record list for "Cc1ccc(S(=O)(=O)N/N=C/CN2C(=O)c3ccccc3C2=O)cc1" ?
**A:** inactive

**Q:** Lab log entry: CCN1CCC(CNC(=O)c2ccc(N)cc2)N1CC (configuration not stated) — outcome as called in the assay?
**A:** inactive

**Q:** Hi, sorry to bother you, what did the test record for "Cc1csc2c1C(=O)c1ccsc1C2=O" ?
**A:** inactive

**Q:** Hello, I am checking results. What call was entered for CCCC(CC)c1c(O)c(O)c(C(CC)CCC)c(C(CC)CCC)c1C(CC)CCC (configuration not stated) ?
**A:** inactive
